METHOD_NOTES: Phase 1 study (NCT04249843): plasma pharmacokinetics of Compound A
Assay type: in vivo, human
TEST_SETTINGS: human, plasma, oral, 40 mg, C1D1, patient 202-012; read-out: AUC8 h
ASSAY_READOUT: AUC(0-t) (ng·h/mL)
Field: numeric (ng·h/mL). Do not append units.

`O=C1CCc2c(Oc3ccc4c(c3)[C@H]3[C@H](NC(=O)Nc5cc(F)c(F)cc5F)[C@H]3O4)ccnc2N1` yielded AUC(0-t) of 5040

----------
METHOD_NOTES: Phase 1 study (NCT04249843): plasma pharmacokinetics of Compound A
Type: in vivo, human
TEST_SETTINGS: human, plasma, oral, 60 mg, 60 mg QD, C2D1, patient 201-011 (excluded from C2D1 summary, extended dose interruption); read-out: AUC8 h
ASSAY_READOUT: AUC(0-t) (ng·h/mL)
Field: numeric (ng·h/mL). Do not append units.

`O=C1CCc2c(Oc3ccc4c(c3)[C@H]3[C@H](NC(=O)Nc5cc(F)c(F)cc5F)[C@H]3O4)ccnc2N1` yielded AUC(0-t) of 31300

----------
METHOD_NOTES: Phase 1 study (NCT04249843): plasma pharmacokinetics of Compound A
Format: in vivo, human
TEST_SETTINGS: human, plasma, oral, 10 mg, 10 mg QD, C2D1, Mean (%CV), patient 101-007 excluded; read-out: AUC8 h
ASSAY_READOUT: AUC(0-t)

O=C1CCc2c(Oc3ccc4c(c3)[C@H]3[C@H](NC(=O)Nc5cc(F)c(F)cc5F)[C@H]3O4)ccnc2N1 [Compound A] yielded AUC(0-t) of 5720 ng·h/mL

----------
METHOD_NOTES: Phase 1 study (NCT04249843): plasma pharmacokinetics of Compound A
Format: in vivo, human
TEST_SETTINGS: human, plasma, oral, 40 mg, C1D1, Mean (%CV)
Protocol: For a single-dose profile: AUC from zero to the last measurable concentration (AUClast), AUC from zero to infinity (AUC0-∞), maximum observed plasma concentration (Cmax), time to maximum observed plasma concentration (tmax), t1/2, apparent clearance, and apparent volume of distribution (Vz/F). In addition, AUClast,ss, AUCtau, Cmax,ss, and tmax, ss were calculated at steady state. […] Pharmacokinetic data were analyzed using the PK Population. […]
ASSAY_READOUT: Cmax (ng/mL)
Field: numeric (ng/mL). Do not append units.

`O=C1CCc2c(Oc3ccc4c(c3)[C@H]3[C@H](NC(=O)Nc5cc(F)c(F)cc5F)[C@H]3O4)ccnc2N1` yielded Cmax of 698

----------
METHOD_NOTES: Phase 1 study (NCT04249843): plasma pharmacokinetics of Compound A
Assay type: in vivo, human
TEST_SETTINGS: human, plasma, oral, 5 mg, 5 mg QD, C2D1, Mean (%CV)
ASSAY_READOUT: Cmax
Units required after the number.

`O=C1CCc2c(Oc3ccc4c(c3)[C@H]3[C@H](NC(=O)Nc5cc(F)c(F)cc5F)[C@H]3O4)ccnc2N1` yielded Cmax of 451 ng/mL

----------
METHOD_NOTES: Phase 1 study (NCT04249843): plasma pharmacokinetics of Compound A
Format: in vivo, human
TEST_SETTINGS: human, plasma, oral, 60 mg, C1D1, Mean (%CV), patient 101-011 excluded
Experimental: For a single-dose profile: AUC from zero to the last measurable concentration (AUClast), AUC from zero to infinity (AUC0-∞), maximum observed plasma concentration (Cmax), time to maximum observed plasma concentration (tmax), t1/2, apparent clearance, and apparent volume of distribution (Vz/F). In addition, AUClast,ss, AUCtau, Cmax,ss, and tmax, ss were calculated at steady state. […] Pharmacokinetic data were analyzed using the PK Population. […]
ASSAY_READOUT: Cmax (ng/mL)
Field: numeric (ng/mL). Do not append units.

`O=C1CCc2c(Oc3ccc4c(c3)[C@H]3[C@H](NC(=O)Nc5cc(F)c(F)cc5F)[C@H]3O4)ccnc2N1` yielded Cmax of 881

These measurements were taken from patent US20250090507A1.
